Exercise: for every item that follows, state its recorded minimum viability across doses.
# Test system: TK-10
# PROTOCOL_DESCRIPTION: minimum viability across doses, drug + dasatinib, relative to DMSO (fraction); higher = less growth inhibition
# CONDITIONS_USED: treatment: drug + dasatinib (fixed dose, not stated); 5 days
Lab note: write the figure by itself, no unit.

Which minimum viability across doses value is on record for c1ccc2c(CCNc3ccc(Nc4ccncc4)cc3)c[nH]c2c1 + Cc1nc(Nc2ncc(C(=O)Nc3c(C)cccc3Cl)s2)cc(N2CCN(CCO)CC2)n1 [dasatinib] ? 0.00918

Which minimum viability across doses value is on record for NC(=O)c1ccc(-c2nc(-c3ccc4c(c3)OCO4)c(-c3ccccn3)[nH]2)cc1 + Cc1nc(Nc2ncc(C(=O)Nc3c(C)cccc3Cl)s2)cc(N2CCN(CCO)CC2)n1 [dasatinib] ? 0.636

Which minimum viability across doses value is on record for CN(C)Cc1cccc(N/C(=C2\C(=O)Nc3cc(C(=O)N(C)C)ccc32)c2ccccc2)c1 + Cc1nc(Nc2ncc(C(=O)Nc3c(C)cccc3Cl)s2)cc(N2CCN(CCO)CC2)n1 [dasatinib] ? 0.386

Which minimum viability across doses value is on record for Nc1ncnc2c1c(-c1cccc(OCc3ccccc3)c1)cn2[C@H]1C[C@H](CN2CCCC2)C1 [NVP-ADW742] + Cc1nc(Nc2ncc(C(=O)Nc3c(C)cccc3Cl)s2)cc(N2CCN(CCO)CC2)n1 [dasatinib] ? 0.124

----------
Exercise: for every item that follows, state its recorded GI50, drug alone.
# System: UO-31
# PROTOCOL_DESCRIPTION: GI50, drug alone; higher = less potent
# CONDITIONS_USED: treatment: drug alone; 5 days
Could you give me the number in µM? Just the number is fine.

Which GI50, drug alone value is on record for CC(C)CC(=O)Nc1n[nH]c2c1CN(C(=O)C1CCN(C)CC1)C2(C)C ? 1.06

Which GI50, drug alone value is on record for CCS(=O)(=O)Nc1ccc2c(c1)/C(=C(/Nc1ccc(CN3CCCCC3)cc1)c1ccccc1)C(=O)N2 ? 2.49

Which GI50, drug alone value is on record for Cc1cc(CN2CCN(c3c(Br)cnc4[nH]c(-c5ccc(N6CCN(C)CC6)cc5)nc34)CC2)no1 ? 8.57

Which GI50, drug alone value is on record for Cc1cc2c(F)c(Oc3ncnn4cc(OC[C@@H](C)O)c(C)c34)ccc2[nH]1 ? 9.55

----------
# Test system: A498
# PROTOCOL_DESCRIPTION: AUC of dose-response viability curve, drug + dasatinib, normalised to DMSO (arbitrary (AUC of normalised viability)); higher = less growth inhibition
# CONDITIONS_USED: treatment: drug + dasatinib (fixed dose, not stated); 5 days
RESULT_TYPE: AUC of dose-response viability curve
Lab note: write the figure by itself, no unit.

Which AUC of dose-response viability curve value is on record for O=C(O)[C@]1(Cc2cccc(Nc3nccs3)n2)CC[C@@H](Oc2cccc(Cl)c2F)CC1 [MK-5108 (VX-689)] + Cc1nc(Nc2ncc(C(=O)Nc3c(C)cccc3Cl)s2)cc(N2CCN(CCO)CC2)n1 ? 2.89

Which AUC of dose-response viability curve value is on record for COC(=O)Nc1ccc(-c2nc(N3CCOCC3)c3cnn(C4CCN(C(=O)OC)CC4)c3n2)cc1 [WYE-354] + Cc1nc(Nc2ncc(C(=O)Nc3c(C)cccc3Cl)s2)cc(N2CCN(CCO)CC2)n1 ? 2.63

----------
# System: 769-P
# PROTOCOL_DESCRIPTION: GI50 of drug in presence of dasatinib; higher = less potent
# CONDITIONS_USED: treatment: drug + dasatinib (fixed dose, not stated); 5 days
Exercise: for every item that follows, state its recorded GI50 of drug.
Could you give me the number in µM? Just the number is fine.

State its GI50 of drug on 769-P: CCOc1cc2ncc(C#N)c(Nc3ccc(OCc4ccccn4)c(Cl)c3)c2cc1NC(=O)/C=C/CN(C)C [Neratinib (HKI-272)] + Cc1nc(Nc2ncc(C(=O)Nc3c(C)cccc3Cl)s2)cc(N2CCN(CCO)CC2)n1 0.102

State its GI50 of drug on 769-P: O=C(NOC[C@H](O)CO)c1ccc(F)c(F)c1Nc1ccc(I)cc1F + Cc1nc(Nc2ncc(C(=O)Nc3c(C)cccc3Cl)s2)cc(N2CCN(CCO)CC2)n1 0.0744

State its GI50 of drug on 769-P: O=c1cc(N2CCOCC2)oc2c(-c3ccccc3)cccc12 + Cc1nc(Nc2ncc(C(=O)Nc3c(C)cccc3Cl)s2)cc(N2CCN(CCO)CC2)n1 5.32

State its GI50 of drug on 769-P: CS(=O)(=O)O.O=C(Nc1cccc(Cl)c1)Nc1ncc(CCNc2ncnc3ccsc23)s1 [SNS-314] + Cc1nc(Nc2ncc(C(=O)Nc3c(C)cccc3Cl)s2)cc(N2CCN(CCO)CC2)n1 0.155

State its GI50 of drug on 769-P: NC(=O)Nc1cc(-c2cccc(F)c2)sc1C(=O)N[C@H]1CCCNC1 [AZD7762] + Cc1nc(Nc2ncc(C(=O)Nc3c(C)cccc3Cl)s2)cc(N2CCN(CCO)CC2)n1 0.0524

----------
# Tested on: UO-31
# PROTOCOL_DESCRIPTION: GI50 of drug in presence of dasatinib; higher = less potent
# CONDITIONS_USED: treatment: drug + dasatinib (fixed dose, not stated); 5 days
RESULT_TYPE: GI50 of drug

Which GI50 of drug value is on record for O=c1cc(N2CCOCC2)oc2c(-c3ccccc3)cccc12 + Cc1nc(Nc2ncc(C(=O)Nc3c(C)cccc3Cl)s2)cc(N2CCN(CCO)CC2)n1 ? 9.2 µM

Which GI50 of drug value is on record for CN1CCN(C2CCN(C(=O)Nc3cc(Oc4ccc(NC(=O)C5(C(=O)Nc6ccc(F)cc6)CC5)c(F)c4)ccn3)CC2)CC1 [Golvatinib (E7050)] + Cc1nc(Nc2ncc(C(=O)Nc3c(C)cccc3Cl)s2)cc(N2CCN(CCO)CC2)n1 ? 3.09 µM

Which GI50 of drug value is on record for COc1cc2ncnc(Nc3cccc(Cl)c3)c2cc1OC [AG-1478 (Tyrphostin AG-1478)] + Cc1nc(Nc2ncc(C(=O)Nc3c(C)cccc3Cl)s2)cc(N2CCN(CCO)CC2)n1 ? > 10 µM

----------
# System: ACHN
# PROTOCOL_DESCRIPTION: minimum viability across doses, drug + dasatinib, relative to DMSO (fraction); higher = less growth inhibition
# CONDITIONS_USED: treatment: drug + dasatinib (fixed dose, not stated); 5 days
RESULT_TYPE: minimum viability across doses
Lab note: write the figure by itself, no unit.

Which minimum viability across doses value is on record for O=C(NC1CCNCC1)c1n[nH]cc1NC(=O)c1c(Cl)cccc1Cl [AT7519] + Cc1nc(Nc2ncc(C(=O)Nc3c(C)cccc3Cl)s2)cc(N2CCN(CCO)CC2)n1 ? 0.00318

Which minimum viability across doses value is on record for Nc1cccc2c1CN(C1CCC(=O)NC1=O)C2=O (stereo not given) [Lenalidomide (Revlimid)] + Cc1nc(Nc2ncc(C(=O)Nc3c(C)cccc3Cl)s2)cc(N2CCN(CCO)CC2)n1 ? 0.503

Which minimum viability across doses value is on record for CN(C)Cc1cccc(N/C(=C2\C(=O)Nc3cc(C(=O)N(C)C)ccc32)c2ccccc2)c1 + Cc1nc(Nc2ncc(C(=O)Nc3c(C)cccc3Cl)s2)cc(N2CCN(CCO)CC2)n1 ? 0.0657

Which minimum viability across doses value is on record for O=c1cc(N2CCOCC2)oc2c(-c3ccccc3)cccc12 + Cc1nc(Nc2ncc(C(=O)Nc3c(C)cccc3Cl)s2)cc(N2CCN(CCO)CC2)n1 ? 0.362

Which minimum viability across doses value is on record for CC(=O)Nc1nc(C)c(-c2ccc(Cl)c(S(=O)(=O)NCCO)c2)s1 [PIK-93] + Cc1nc(Nc2ncc(C(=O)Nc3c(C)cccc3Cl)s2)cc(N2CCN(CCO)CC2)n1 ? 0.188

Which minimum viability across doses value is on record for COC(=O)Nc1ccc(-c2nc(N3CCOCC3)c3cnn(C4CCN(C(=O)OC)CC4)c3n2)cc1 [WYE-354] + Cc1nc(Nc2ncc(C(=O)Nc3c(C)cccc3Cl)s2)cc(N2CCN(CCO)CC2)n1 ? 0.0892

Which minimum viability across doses value is on record for CNC(=O)c1nn(C)c2c1C(C)(C)Cc1cnc(Nc3ccc(N4CCN(C)CC4)cc3)nc1-2 + Cc1nc(Nc2ncc(C(=O)Nc3c(C)cccc3Cl)s2)cc(N2CCN(CCO)CC2)n1 ? 0.0123

Which minimum viability across doses value is on record for O=C1NC(=O)/C(=C/c2ccc3nccnc3c2)S1 + Cc1nc(Nc2ncc(C(=O)Nc3c(C)cccc3Cl)s2)cc(N2CCN(CCO)CC2)n1 ? 0.479

Which minimum viability across doses value is on record for Nc1cc(C(F)(F)F)c(-c2cc(N3CCOCC3)nc(N3CCOCC3)n2)cn1 [BKM120 (NVP-BKM120)] + Cc1nc(Nc2ncc(C(=O)Nc3c(C)cccc3Cl)s2)cc(N2CCN(CCO)CC2)n1 ? 0.0632

Which minimum viability across doses value is on record for CNC(=O)c1cc(Oc2ccc(NC(=O)Nc3ccc(Cl)c(C(F)(F)F)c3)c(F)c2)ccn1 [Regorafenib (BAY 73-4506)] + Cc1nc(Nc2ncc(C(=O)Nc3c(C)cccc3Cl)s2)cc(N2CCN(CCO)CC2)n1 ? 0.153
